subject of test: HERG (Homo sapiens, UniProt Q12809)
Sequence (Q12809 whole entry): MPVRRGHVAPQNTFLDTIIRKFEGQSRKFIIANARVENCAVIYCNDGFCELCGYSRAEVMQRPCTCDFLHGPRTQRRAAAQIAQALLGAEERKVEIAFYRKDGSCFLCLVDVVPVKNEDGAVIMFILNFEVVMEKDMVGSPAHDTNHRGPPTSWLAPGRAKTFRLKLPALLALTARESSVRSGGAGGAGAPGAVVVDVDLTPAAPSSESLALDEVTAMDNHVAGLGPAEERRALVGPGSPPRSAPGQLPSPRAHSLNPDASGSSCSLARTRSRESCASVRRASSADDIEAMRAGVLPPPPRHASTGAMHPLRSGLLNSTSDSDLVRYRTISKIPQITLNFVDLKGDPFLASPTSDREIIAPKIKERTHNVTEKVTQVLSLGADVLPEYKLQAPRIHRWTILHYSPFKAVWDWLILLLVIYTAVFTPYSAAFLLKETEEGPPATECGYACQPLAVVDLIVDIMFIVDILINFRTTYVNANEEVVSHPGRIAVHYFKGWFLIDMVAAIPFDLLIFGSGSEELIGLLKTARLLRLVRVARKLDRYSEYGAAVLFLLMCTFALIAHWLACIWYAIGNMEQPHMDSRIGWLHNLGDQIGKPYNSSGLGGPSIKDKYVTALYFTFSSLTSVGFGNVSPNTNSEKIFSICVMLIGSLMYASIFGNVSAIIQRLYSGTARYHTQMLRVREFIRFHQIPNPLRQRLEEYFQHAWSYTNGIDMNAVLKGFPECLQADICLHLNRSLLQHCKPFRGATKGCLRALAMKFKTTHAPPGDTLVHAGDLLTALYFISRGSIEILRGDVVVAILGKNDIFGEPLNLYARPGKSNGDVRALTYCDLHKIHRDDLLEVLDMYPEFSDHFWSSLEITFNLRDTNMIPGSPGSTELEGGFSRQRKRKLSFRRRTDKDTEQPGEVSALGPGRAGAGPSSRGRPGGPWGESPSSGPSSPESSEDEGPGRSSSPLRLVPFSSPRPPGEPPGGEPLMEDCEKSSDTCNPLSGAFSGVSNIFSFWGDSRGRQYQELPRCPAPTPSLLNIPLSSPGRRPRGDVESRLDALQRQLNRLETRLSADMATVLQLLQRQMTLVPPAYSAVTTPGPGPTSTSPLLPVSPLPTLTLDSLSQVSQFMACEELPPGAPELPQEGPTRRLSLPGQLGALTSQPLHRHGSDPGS
assay summary: HERG Patch Clamp EP
stated conditions: human, HEK cells stably overexpressing HERG
Parameter: inhibition at 10 µM. Scope: all listed entries.
Number in %, nothing else.

# input Item under review: COc1ccc(CCN2C(=O)N(N(CCn3ccnc3)C(=O)OC(C)(C)C)CC2c2ccc(C(C)(C)C)cc2)cc1 (centres unmarked) . Reported inhibition at 10 µM?
# output 86

====

subject of test: UniProt:P22460
Sequence (P22460 whole entry): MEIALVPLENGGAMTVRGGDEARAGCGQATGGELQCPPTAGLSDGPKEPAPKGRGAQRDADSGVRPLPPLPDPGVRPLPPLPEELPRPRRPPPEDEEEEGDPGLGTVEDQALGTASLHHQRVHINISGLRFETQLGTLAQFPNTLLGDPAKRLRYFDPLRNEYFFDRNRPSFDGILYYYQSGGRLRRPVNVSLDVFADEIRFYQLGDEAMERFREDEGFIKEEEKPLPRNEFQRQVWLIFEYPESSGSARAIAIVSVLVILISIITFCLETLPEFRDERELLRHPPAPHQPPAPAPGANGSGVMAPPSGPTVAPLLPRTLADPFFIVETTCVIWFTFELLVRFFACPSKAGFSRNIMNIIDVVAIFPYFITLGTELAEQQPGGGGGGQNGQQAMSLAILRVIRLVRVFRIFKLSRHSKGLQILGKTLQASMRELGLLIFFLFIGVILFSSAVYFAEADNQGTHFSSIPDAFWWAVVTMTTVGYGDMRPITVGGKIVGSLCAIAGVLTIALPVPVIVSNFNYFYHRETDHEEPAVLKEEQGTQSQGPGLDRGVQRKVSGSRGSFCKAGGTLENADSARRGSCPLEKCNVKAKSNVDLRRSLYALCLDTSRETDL
assay summary: Kv1.5 Patch Clamp EP
stated conditions: whole cell patch clamp, HEK or LTK- cells; at least four concentrations, n=3
Parameter: IC50. Scope: all listed entries.
Number in nM, nothing else.

Some solved entries appear below for comparison.
COc1ccc(CCN2C(=O)N(NCc3ccccc3)CC2c2ccc(C)c(C)c2)cc1 (centres unmarked) ... 399
COc1ccc(CCN2C(=O)N(NS(N)(=O)=O)CC2c2ccc(C3CC3)cc2)cc1 (centres unmarked) ... 238
COc1ccc(CCN2C(=O)N(NS(C)(=O)=O)CC2c2ccc(C)c(C)c2)cc1 (centres unmarked) ... 232
COCCN(CCOC)C(=O)CS(=O)(=O)NN1CC(c2ccc(C3CC3)cc2)N(CCc2ccc(OC)cc2)C1=O (centres unmarked) ... 453
COc1ccc(CCN2C(=O)N(NC(=O)C3CC3)CC2c2ccc(C(C)(C)C)cc2)cc1 (centres unmarked) ... 658
COc1ccc(CCN2C(=O)N(NS(=O)(=O)Cc3cccnc3)CC2c2ccc(OC(F)F)cc2)cc1 (centres unmarked) ... 418
COc1ccc(CCN2C(=O)N(NS(=O)(=O)Cc3cccnc3)CC2c2ccc(OC)cc2)cc1 (centres unmarked) ... 257

Now, please, on to the next molecule.
# input Item under review: COc1ccc(CCN2C(=O)N(NS(=O)(=O)CC(=O)NCC3CC3)CC2c2ccc(OC)cc2)cc1 (centres unmarked) . Reported IC50?
# output 631
